Would you kindly list Molar enthalpy of transition or fusion for each of these compounds?
# experiment-description: Molar enthalpy of transition or fusion
# measurement-context: Crystal; Adiabatic calorimetry
Your answer is read as kcal/mol, so omit the unit and give the number.

Query CCCCCCCCCCCCCCn1cc[n+](C)c1.O=S(=O)([N-]S(=O)(=O)C(F)(F)F)C(F)(F)F yields Molar enthalpy of transition or fusion of 9.54

Query CCC[n+]1ccn(C)c1.[Br-] [1-methyl-3-propylimidazolium bromide] yields Molar enthalpy of transition or fusion of 4.59

Query CCCCCCCC[n+]1ccn(C)c1.F[B-](F)(F)F [1-methyl-3-octylimidazolium tetrafluoroborate] yields Molar enthalpy of transition or fusion of 3.51

Query CCCCn1cc[n+](C)c1.N#CN=C=[N-] [1-butyl-3-methylimidazolium dicyanamide] yields Molar enthalpy of transition or fusion of 4.25

###

Would you kindly list Triple point temperature for each of these compounds?
# measurement-context: Crystal
± gives the expanded uncertainty stated by the source.

Query CCCC[N+]1(C)CCCC1.O=S(=O)([N-]S(=O)(=O)C(F)(F)F)C(F)(F)F yields Triple point temperature of 265.65 ± 0.2 K

Query CCCCCCCC[n+]1ccn(C)c1.F[B-](F)(F)F [1-methyl-3-octylimidazolium tetrafluoroborate] yields Triple point temperature of 245.75 ± 0.3 K

Query CCCC[N+](C)(C)C.O=S(=O)([N-]S(=O)(=O)C(F)(F)F)C(F)(F)F [butyltrimethylammonium bis(trifluoromethylsulfonyl)imide] yields Triple point temperature of 290.23 ± 0.2 K

Query CCCCn1cc[n+](C)c1.O=S(=O)([O-])C(F)(F)F [1-butyl-3-methylimidazolium trifluoromethanesulfonate] yields Triple point temperature of 290.98 ± 0.2 K

Query CCC[n+]1ccn(C)c1.[Br-] [1-methyl-3-propylimidazolium bromide] yields Triple point temperature of 309.56 ± 0.4 K

Query CCCCCCCCCCCCCCn1cc[n+](C)c1.O=S(=O)([N-]S(=O)(=O)C(F)(F)F)C(F)(F)F yields Triple point temperature of 308.72 ± 0.6 K

Query CCCCn1cc[n+](C)c1.N#CN=C=[N-] [1-butyl-3-methylimidazolium dicyanamide] yields Triple point temperature of 270.83 ± 0.6 K
